Data provenance is PubChem BioAssay.

Target Or System: Neurogenic locus notch homolog protein 3 (Homo sapiens) (UniProt Q9UM47)
Sequence (Q9UM47 whole entry, looked up): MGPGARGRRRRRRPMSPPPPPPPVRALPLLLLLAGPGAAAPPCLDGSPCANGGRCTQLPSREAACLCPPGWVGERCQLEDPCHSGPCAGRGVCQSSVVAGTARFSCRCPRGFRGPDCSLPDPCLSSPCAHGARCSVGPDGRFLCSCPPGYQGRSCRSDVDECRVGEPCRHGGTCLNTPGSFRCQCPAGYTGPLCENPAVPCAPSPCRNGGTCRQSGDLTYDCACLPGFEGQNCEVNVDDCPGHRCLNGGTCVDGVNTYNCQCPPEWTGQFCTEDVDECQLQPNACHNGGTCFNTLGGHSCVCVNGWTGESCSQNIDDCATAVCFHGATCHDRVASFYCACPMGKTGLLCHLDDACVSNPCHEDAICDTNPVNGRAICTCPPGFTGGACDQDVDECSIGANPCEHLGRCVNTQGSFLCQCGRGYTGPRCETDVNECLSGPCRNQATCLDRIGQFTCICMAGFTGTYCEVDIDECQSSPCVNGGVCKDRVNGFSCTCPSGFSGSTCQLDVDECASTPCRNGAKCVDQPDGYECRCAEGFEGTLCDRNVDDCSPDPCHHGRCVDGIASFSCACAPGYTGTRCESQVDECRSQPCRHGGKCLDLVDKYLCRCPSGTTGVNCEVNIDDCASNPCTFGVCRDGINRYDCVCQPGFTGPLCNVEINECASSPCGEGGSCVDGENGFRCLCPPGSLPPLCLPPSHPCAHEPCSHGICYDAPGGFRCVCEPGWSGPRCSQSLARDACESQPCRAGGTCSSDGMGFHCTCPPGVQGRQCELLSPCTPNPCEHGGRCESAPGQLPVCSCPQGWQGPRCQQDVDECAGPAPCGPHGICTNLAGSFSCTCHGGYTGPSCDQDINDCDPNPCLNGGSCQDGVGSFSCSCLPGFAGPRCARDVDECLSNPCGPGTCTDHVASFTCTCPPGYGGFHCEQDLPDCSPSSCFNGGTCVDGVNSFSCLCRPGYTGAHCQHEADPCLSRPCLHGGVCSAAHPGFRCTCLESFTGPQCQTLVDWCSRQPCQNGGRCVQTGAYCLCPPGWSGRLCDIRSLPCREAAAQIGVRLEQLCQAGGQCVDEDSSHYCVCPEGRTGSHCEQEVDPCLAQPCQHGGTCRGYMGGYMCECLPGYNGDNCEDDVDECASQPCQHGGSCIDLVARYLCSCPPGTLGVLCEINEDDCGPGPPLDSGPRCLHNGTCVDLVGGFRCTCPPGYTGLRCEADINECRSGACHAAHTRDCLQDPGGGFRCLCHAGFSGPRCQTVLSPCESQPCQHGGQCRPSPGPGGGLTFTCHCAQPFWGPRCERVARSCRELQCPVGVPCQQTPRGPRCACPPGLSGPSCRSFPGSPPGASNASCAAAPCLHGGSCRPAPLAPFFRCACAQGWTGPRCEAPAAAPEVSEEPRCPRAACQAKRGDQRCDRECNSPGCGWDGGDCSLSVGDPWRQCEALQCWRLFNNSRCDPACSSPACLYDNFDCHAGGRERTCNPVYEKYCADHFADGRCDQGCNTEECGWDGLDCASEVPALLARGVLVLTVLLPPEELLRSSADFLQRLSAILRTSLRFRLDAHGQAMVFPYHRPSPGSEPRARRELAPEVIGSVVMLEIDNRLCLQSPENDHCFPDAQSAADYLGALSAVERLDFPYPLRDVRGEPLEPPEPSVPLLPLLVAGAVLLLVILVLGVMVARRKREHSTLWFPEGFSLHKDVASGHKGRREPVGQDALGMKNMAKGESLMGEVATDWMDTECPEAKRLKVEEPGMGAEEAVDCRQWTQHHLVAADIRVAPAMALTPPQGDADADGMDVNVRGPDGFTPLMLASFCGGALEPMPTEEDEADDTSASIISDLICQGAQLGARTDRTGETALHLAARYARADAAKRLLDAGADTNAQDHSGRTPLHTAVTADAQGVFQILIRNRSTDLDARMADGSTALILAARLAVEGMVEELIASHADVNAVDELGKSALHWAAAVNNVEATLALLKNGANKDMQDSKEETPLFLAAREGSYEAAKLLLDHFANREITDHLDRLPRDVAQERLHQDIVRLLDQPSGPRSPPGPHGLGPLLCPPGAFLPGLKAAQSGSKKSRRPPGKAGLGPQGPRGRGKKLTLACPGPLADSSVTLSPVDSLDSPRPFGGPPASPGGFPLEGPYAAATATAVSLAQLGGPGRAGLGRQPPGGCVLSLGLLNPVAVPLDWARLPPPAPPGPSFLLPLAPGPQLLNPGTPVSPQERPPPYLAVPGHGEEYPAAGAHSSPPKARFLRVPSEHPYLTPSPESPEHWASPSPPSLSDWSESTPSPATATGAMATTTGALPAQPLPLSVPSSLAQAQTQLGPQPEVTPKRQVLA
Assay Text: NOTCH3 binders on small-molecule microarray, primary screen, biochemical, 635/667 nm fluorescence (AID 1096)
Test Parameters: NOTCH3 binding, 635 nm fluorescence, higher = more signal
Measure: composite z-score
Answer field: number only, no words.

A selection of reference data follows.
C=C(C(=O)CC[C@H](OC(=O)c1ccccc1-c1ccccc1C(=O)O)c1ccccc1OCCO)C(C)C; 0.257
O=C(NCC(O)CO)[C@@]1(CCS(=O)(=O)c2ccccc2)COC(c2ccc(OCCCO)cc2)=N1 (some centres not stated); 0.79

Query string: Looking for the measured composite z-score of "C=C(COC)C(=O)CC[C@@H](OC(=O)c1cccnc1)c1ccccc1OCCO" , can you help?
Result string: -0.302

Query string: "C=C(/C(=C/C[C@@H](OC(C)=O)c1ccc(OCCO)cc1)c1cc(C(=O)OC)ccc1OC)C(C)C" , same question.
Result string: 0.843

Query string: "CN(C)C(=O)[C@@]1(Cc2ccccc2)COC(c2ccc(OCCCO)cc2)=N1" , same question.
Result string: -0.451

Query string: "[N-]=[N+]=NCc1ccccc1C[C@]1(C(=O)N2CCOCC2)COC(c2ccc(OCCCO)cc2)=N1" , same question.
Result string: 0.364

Query string: CC(C)=CCCC(C)=CC(O)C1C=CC2C(=O)N(c3ccccc3)C(=O)C2N1Nc1ccccc1F (configuration not stated) , same question.
Result string: 0.761

Query string: "Cc1ccc(S[C@]2(C(=O)NC(C)C)CC(=O)N(C(C)C)[C@@H]2c2ccc(CO)cc2I)cc1" , same question.
Result string: -0.196

Query string: CCOC(=O)C1=CCC(c2ccco2)N(S(=O)(=O)c2ccc(C)cc2)C1 (configuration not stated) , same question.
Result string: 1.08

Query string: "COc1cccc(/C=C(\C#N)C(=O)Nc2c(C)n(C)n(-c3ccccc3)c2=O)c1" , same question.
Result string: 0.539

Query string: "NC(=O)[C@H]1[C@@H]2C(=O)O[C@@H](c3ccccc3)[C@@H](c3ccccc3)N2[C@@H](c2ccc(O)cc2)[C@]12C(=O)Nc1ccc(C#CC3=CCCCC3)cc12" , same question.
Result string: 0.169

Query string: "COc1ccc(C(=O)Nc2cccc(CN3C(=O)[C@]4(O[C@H](CCn5cc([C@H](O)c6ccccc6)nn5)[C@@H]([Si](C)(C)c5ccc(OC)cc5)[C@@H]4C)c4ccccc43)c2)cc1" , same question.
Result string: 0.889

Query string: "C=C[C@H](C)[C@H](OC(=O)Nc1ccc(OC)cc1)c1ccc(OCCO)cc1" , same question.
Result string: -0.36

Query string: "Nc1cc(Br)ccc1C(=O)O" , same question.
Result string: 0.332

Query string: "COCCCNC(=O)[C@@]1(c2ccc([N+](=O)[O-])cc2)CC(=O)N(CC23CC4CC(CC(C4)C2)C3)[C@@H]1c1ccc(CO)cc1I" , same question.
Result string: 0.341

Query string: "CCOC(=O)C1=C[C@@H](C(C)(C)C)N(S(=O)(=O)c2ccc(C)cc2)[C@H]1c1cccc(Cl)c1" , same question.
Result string: 1.08

Query string: Cc1ccccc1C(O)C1C=CC2C(=O)NC(=O)C2N1Nc1ccc(Cl)cc1Cl (configuration not stated) , same question.
Result string: 0.765
